Test system: HCV 1b_Huh-Luc/Neo-ET cell line persistently expressing a bicistronic genotype 1b replicon in Huh 7 cells
Assay: HCV replicon assay (luciferase readout)
Format: cell-based
Settings: Hepatitis C virus, Huh-7, 72 h, read-out: Inhibition of HCV genotype 1b
pEC50: −log10 of the molar value.
READOUT: pEC50

{"MOLECULE": "COC(=O)N[C@H](C(=O)N[C@@H](C)c1ncc(-c2ccc(C#Cc3ccc(-c4cnc([C@@H]5CCCN5C(=O)[C@@H](NC(=O)OC)C(C)C)[nH]4)cc3)cc2)[nH]1)C(C)C", "pEC50": "> 9.00"}
{"MOLECULE": "COC(=O)N[C@@H](C(=O)N1CCC[C@H]1c1ncc(-c2ccc(C#Cc3ccc(-c4cnc([C@@H]5CCCN5C(=O)[C@H](C(C)C)N5CCOC5=O)[nH]4)cc3)cc2)[nH]1)c1ccccc1", "pEC50": "> 9.00"}
{"MOLECULE": "COC(=O)N[C@H](C(=O)N1CCC[C@H]1c1ncc(-c2ccc(C#Cc3ccc4nc([C@@H]5CCCN5C(=O)[C@@H](NC(=O)OC)C(C)C)[nH]c4c3)cc2)[nH]1)C(C)C", "pEC50": "> 9.00"}
{"MOLECULE": "COC(=O)N[C@H](C(=O)N1CCC[C@H]1c1nc(-c2ccc3cc(C#Cc4cnc([C@@H]5CCCN5C(=O)[C@H](NC(=O)OC)c5ccccc5)[nH]4)ccc3c2)c[nH]1)C(C)C", "pEC50": "> 9.00"}

Below: the item to evaluate.
Ask: Please report the recorded pEC50 for `COC(=O)N[C@@H](C(=O)N1CCC[C@H]1c1ncc(-c2ccc(C#Cc3ccc(-c4cnc([C@@H]5CCCN5C(=O)[C@H](NC(=O)N5CCC[C@H]5CO)c5ccccc5)[nH]4)cc3)cc2)[nH]1)c1ccccc1` .
Reply: > 9.00
